measuredQuantity: melting point

Output melting point of CCc1cc2c(cc1F)c(C(=O)O)c(-c1ncc(NS(=O)(=O)C(C)(C)C)cn1)n2C1CCCCC1 [compound 1028]
236 to 237 °C

Output melting point of N#Cc1c(-c2ccc(S(=O)(=O)NC(CF)CF)cn2)n(C2CCCC2)c2cc(CC(F)F)ccc12 [compound 593]
178 to 184 °C

Output melting point of CCc1cc2c(cc1F)c(C(N)=O)c(-c1ccc(S(=O)(=O)NC3(C(F)(F)F)CC3)cn1)n2C1CCCC1 [compound 872]
196 to 197 °C

Output melting point of Cc1cc2c(cc1F)cc(-c1ccc(S(=O)(=O)N[C@@H](C)C(F)(F)F)cn1)n2-c1nccs1 [compound 903]
224 to 230 °C

Output melting point of C[C@H](NS(=O)(=O)c1ccc(-c2c(C#N)c3ccc(OC(F)(F)F)cc3n2C2CCCCC2)nc1)C1CC1 [compound 305]
195 to 197 °C

Output melting point of C[C@H](NS(=O)(=O)c1cnc(-c2c(C#N)c3ccc(OC(F)F)cc3n2-c2ccccc2)nc1)C(F)(F)F [compound 611]
216 to 218 °C

Output melting point of Cc1cc2c(C#N)c(-c3ccc(S(=O)(=O)N[C@@H](C)C(F)(F)F)cn3)n(C3CCC3)c2cc1F [compound 492]
185 to 190 °C
